experiment: viability of Vero cells under compound – cytotoxicity control for flavivirus capping enzyme inhibitors (AID 588742); details: cytotoxicity counter-screen; series mostly up to 40 µM
Out of some 1,800 compounds screened, about 410 (23%) were called active. Only a sample is shown. Results with a measured potency or affinity are listed apart.
Attribute measured: outcome

Recorded results for 10 molecules are shown here.
                                   molecule  value_reported
0    O=S(=O)(Nc1ccc(O)c2ccccc12)c1ccc(F)cc1        inactive
1      CC1=NN(c2nc(-c3ccc(F)cc3)cs2)C(=O)C1        inactive
2  O=C1N=c2ccc(Br)cc2=C1c1sc(=S)n(NS(=O)(=O)c2ccccc2)c1O        inactive
3  O=C(CNc1cccc2ccccc12)N/N=C/c1ccc(C(=O)O)cc1        inactive
4  O=C(O)CCN1C(=O)/C(=C\c2cccc(Oc3ccccc3)c2)SC1=S        inactive
5    CCCc1cc(=O)oc2c(CN3CCCC3)c(O)c(Cl)cc12        inactive
6       O=S(=O)(O)c1cccc2cccc(Nc3ccccc3)c12        inactive
7  O=C(NNS(=O)(=O)c1ccc([N+](=O)[O-])cc1)c1ccc2ccccc2c1O        inactive
8  CC(=O)C1CCC2C3CCC4=CC(=O)CCC4(C)C3(Br)C(=O)CC12C (configuration not stated)        inactive
9  CC(C)C[C@H](N)c1nnc(SCC(=O)Nc2ccc(Br)cc2)o1        inactive

Recorded result, CC(=O)OCC1=C(C(=O)O)N2C(=O)C(NC(=O)c3ccc(COc4c(C)cccc4Cl)o3)C2SC1 (configuration not stated) , outcome: inactive

Recorded result, Cc1ccc(C)c(OCC(=O)NCC2COc3ccccc3O2)c1 (configuration not stated) , outcome: inactive

Recorded result, CCOc1ccccc1CNc1ccc(O)cc1 , outcome: inactive

Recorded result, O=C(Nc1ccc(Cl)cc1)C1c2cccc[n+]2CC(=O)N1Cc1ccc2c(c1)OCO2 (configuration not stated) , outcome: inactive

Recorded result, CCc1ccc(S(=O)(=O)Nc2ccc(O)c3ccccc23)cc1 , outcome: inactive

Recorded result, O=C1NC2=C(C(=O)CCC2)C(c2ccccc2[N+](=O)[O-])N1 (configuration not stated) , outcome: inactive

Recorded result, O=C(O)c1ccccc1NS(=O)(=O)c1cccc(NS(=O)(=O)c2cc(Br)ccc2Br)c1 , outcome: inactive

Recorded result, CCn1c(CSc2nnc3ccccn23)nc2cc(C(=O)O)ccc21 , outcome: inactive

Recorded result, O=C(O)c1cccc(NC2=C(Cl)C(=O)c3ccccc3C2=O)c1 , outcome: inactive

Recorded result, O=C(COC(=O)c1ccc(NS(=O)(=O)c2cccs2)cc1O)NC1CCCCC1 , outcome: inactive

Recorded result, Cc1cccc(OC(C)C(=O)OCC(=O)Nc2sccc2C(N)=O)c1 (configuration not stated) , outcome: inactive

Recorded result, Cc1cccc(N2C(=O)C(Cl)=C(N3CCOCC3)C2=O)c1 , outcome: inactive

Origin of the recorded values: PubChem BioAssay AID588742
